# System: 415267-285-R-J2-PDC complex spheroid viability;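 also: luminescence used as stand-in measure of viable cells; spheroids exposed to compounds for one week before readout; 100% = DMSO vehicle control viability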
# measurementProtocol: Anticancer human tumor 415267-285-R-J2-PDC patient-derived breast carcinoma cell line growth inhibition [POLQ]
# conditions: second compound 0.316 µM; first compound 1 µM; hits give low values
The molecules listed here are annotated with their viability, T/C.
Give the value, in units of %, as a plain number.

Worked examples, 6 molecules total:
molecule | scaleUnit | observed
C#Cc1c(F)ccc2cc(O)cc(-c3ncc4c(N5CC6CCC(C5)N6)nc(OCC56CCCN5CC(F)C6)nc4c3F)c12 (stereo not given) + Nc1ccc(C#CCN(C(=O)Cc2ncc(C(F)(F)F)cc2C(F)(F)F)c2ccc(F)cc2)nn1 | % | 111
COc1cccc(OCCCN)c1-c1cc(Nc2cnc(C#N)cn2)n[nH]1 + COC1C(OC(N)=O)C(O)C(Oc2ccc3c(O)c(NC(=O)c4ccc(O)c(CC=C(C)C)c4)c(=O)oc3c2C)OC1(C)C | % | 4.55
COc1ccc([C@@H](O)c2cc(-c3ncnc4cc(N5CCOCC5)ccc34)c(F)cc2Cl)nn1 + COC1C(OC(N)=O)C(O)C(Oc2ccc3c(O)c(NC(=O)c4ccc(O)c(CC=C(C)C)c4)c(=O)oc3c2C)OC1(C)C | % | 87.7
C=CCn1c(=O)c2cnc(Nc3ccc(N4CCN(C)CC4)cc3)nc2n1-c1cccc(C(C)(C)O)n1 + Nc1ccc(C#CCN(C(=O)Cc2ncc(C(F)(F)F)cc2C(F)(F)F)c2ccc(F)cc2)nn1 | % | 5.51
COc1cccc(OCCCN)c1-c1cc(Nc2cnc(C#N)cn2)n[nH]1 + Nc1ccc(C#CCN(C(=O)Cc2ncc(C(F)(F)F)cc2C(F)(F)F)c2ccc(F)cc2)nn1 | % | 4.07
C=CCn1c(=O)c2cnc(Nc3ccc(N4CCN(C)CC4)cc3)nc2n1-c1cccc(C(C)(C)O)n1 + Cc1cccc(N(C)C(=O)C2C(O)CCN2c2nc(C)cc(C(F)(F)F)c2C#N)c1 | % | 7.48

Exercise: Give the measured viability, T/C of CC1COCCN1c1cc(C2(S(C)(=N)=O)CC2)nc(-c2ccnc3[nH]ccc23)n1 (stereo not given) + COC1C(OC(N)=O)C(O)C(Oc2ccc3c(O)c(NC(=O)c4ccc(O)c(CC=C(C)C)c4)c(=O)oc3c2C)OC1(C)C .
Solution: 11.6

Exercise: Give the measured viability, T/C of O=C(c1cc(Cc2n[nH]c(=O)c3ccccc23)ccc1F)N1CCN(C(=O)C2CC2)CC1 + COC1C(OC(N)=O)C(O)C(Oc2ccc3c(O)c(NC(=O)c4ccc(O)c(CC=C(C)C)c4)c(=O)oc3c2C)OC1(C)C .
Solution: 96.6

Exercise: Give the measured viability, T/C of Nc1ccn(C2OC(CO)C(O)C2(F)F)c(=O)n1 (stereo not given) + Nc1ccc(C#CCN(C(=O)Cc2ncc(C(F)(F)F)cc2C(F)(F)F)c2ccc(F)cc2)nn1 .
Solution: 3.94

Exercise: Give the measured viability, T/C of O=c1[nH]cc(F)c(=O)[nH]1 + Nc1ccc(C#CCN(C(=O)Cc2ncc(C(F)(F)F)cc2C(F)(F)F)c2ccc(F)cc2)nn1 .
Solution: 24.4

Exercise: Give the measured viability, T/C of COc1cccc2c1C(=O)c1c(O)c3c(c(O)c1C2=O)CC(O)(C(=O)CO)CC3OC1CC(N)C(O)C(C)O1 (stereo not given) + Cc1cccc(N(C)C(=O)C2C(O)CCN2c2nc(C)cc(C(F)(F)F)c2C#N)c1 .
Solution: 0.81

Exercise: Give the measured viability, T/C of C=CCn1c(=O)c2cnc(Nc3ccc(N4CCN(C)CC4)cc3)nc2n1-c1cccc(C(C)(C)O)n1 + COC1C(OC(N)=O)C(O)C(Oc2ccc3c(O)c(NC(=O)c4ccc(O)c(CC=C(C)C)c4)c(=O)oc3c2C)OC1(C)C .
Solution: 7.25
